Data provenance is patent US8569336B2.

biological target: purified catalytic domain of recombinant human TACE (rhTACEc) (Homo sapiens, UniProt P78536, N452Q/S266A); construct: 6xHis (C); made in house; host or cells: baculovirus/Hi5 insect cells; experiment: TACE kinetic assay: cleavage of internally quenched peptide substrate TNF-FRET 2 (Ki); format: biochemical; settings: TNF-FRET 2 substrate, read-out: Ki
Sequence (P78536 215-477 S266A/N452Q): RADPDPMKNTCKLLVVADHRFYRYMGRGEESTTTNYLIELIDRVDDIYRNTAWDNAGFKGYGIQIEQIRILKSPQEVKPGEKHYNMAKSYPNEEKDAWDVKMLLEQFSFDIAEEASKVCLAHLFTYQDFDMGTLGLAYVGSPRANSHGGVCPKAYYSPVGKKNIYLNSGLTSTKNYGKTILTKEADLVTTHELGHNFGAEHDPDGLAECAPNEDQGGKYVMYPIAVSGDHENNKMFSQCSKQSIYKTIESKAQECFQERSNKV
pKi: −log10 of the molar value.
recorded-metric: pKi

Use the examples below as a reference point.
{"columns": ["compound", "pKi"],
 "data": [
  ["COc1ccc2c(c1)C(=O)N(C[C@@]1(c3ccc(-c4ccc5c(c4)CN(CC4(C)NC(=O)NC4=O)C5=O)cc3)NC(=O)NC1=O)C2 (some centres unmarked)", 8.73],
  ["COc1ccc2c(c1)C(=O)N(C[C@@]1(c3cc4ccc(C(=O)N[C@@H](C)CO)cc4o3)NC(=O)NC1=O)C2", 9.19],
  ["CCOC(=O)C1CCCN(c2ccc3oc([C@]4(CN5Cc6ccc(OC)cc6C5=O)NC(=O)NC4=O)cc3n2)C1 (some centres unmarked)", 9.30],
  ["O=C1NC(=O)[C@](CN2CCc3ccsc3C2=O)(c2cc3ncccc3o2)N1", 8.90],
  ["CCNC(=O)N1CCc2oc([C@]3(CN4Cc5ccc(OC)cc5C4=O)NC(=O)NC3=O)cc2C1", 9.40],
  ["COc1ccc2c(c1)C(=O)N(C[C@@]1(c3cc4c(o3)CNCC4)NC(=O)NC1=O)C2", 8.11],
  ["COc1ccc2c(c1)C(=O)N(C[C@@]1(c3cc4nc(C(=O)NC5CC5)ccc4o3)NC(=O)NC1=O)C2 [Compound 1926]", 9.92],
  ["COc1ccc2c(c1F)C(=O)N(C[C@@]1(c3cc4cc5c(c(F)c4o3)C(=O)N(C)C5)NC(=O)NC1=O)C2", 9.16]
]}

I. COc1cc2c(cc1OC)C(=O)N(C[C@]1(c3cc4cnccc4o3)NC(=O)NC1=O)C2
II. COc1ccc2c(c1)C(=O)N(C[C@@]1(c3cc4c(-c5ccccc5F)nccc4o3)NC(=O)NC1=O)C2
(Q) Kindly identify which of I and II has the larger recorded pKi value. Answer by stating the label of the chosen item.
(A) II

---

molecular target: purified catalytic domain of recombinant human TACE (rhTACEc) (Homo sapiens, UniProt P78536, N452Q/S266A); construct: 6xHis (C); made in house; host or cells: baculovirus/Hi5 insect cells; experiment: TACE kinetic assay: cleavage of internally quenched peptide substrate TNF-FRET 2 (Ki); type: biochemical; conditions: TNF-FRET 2 substrate, read-out: Ki
pKi: −log10 of the molar value.
recorded-metric: pKi

{"columns": ["compound", "pKi"],
 "data": [
  ["COc1ccc2c(c1)C(=O)N(C[C@@]1(c3cc4cc(C)ncc4o3)NC(=O)NC1=O)C2 [Compound 2302]", 9.36],
  ["COc1ccc2c(c1)C(=O)N(C[C@@]1(c3cc4cnc(NC(C)C)nc4o3)NC(=O)NC1=O)C2 [Compound 2298]", 8.77],
  ["COc1ccc2c(c1)C(=O)N(C[C@@]1(c3cc4nc(Nc5nccc(O)n5)ccc4o3)NC(=O)NC1=O)C2 [Compound 2144]", 9.71],
  ["COc1ccc2c(c1)C(=O)N(C[C@@]1(c3cc4nc(-c5cccnc5)ccc4o3)NC(=O)NC1=O)C2 [Compound 2107]", 9.04],
  ["COc1ccc2c(c1F)C(=O)N(C[C@@]1(c3cc4c(ccc5sc(N)nc54)o3)NC(=O)NC1=O)C2 [Compound 1741]", 9.66],
  ["COCCN1CCN(c2ccc3oc([C@]4(CN5Cc6ccc(OC)cc6C5=O)NC(=O)NC4=O)cc3n2)CC1 [Compound 1500]", 8.96],
  ["COc1ccc2c(c1)C(=O)N(C[C@@]1(c3cc4c(C(C)=O)nccc4o3)NC(=O)NC1=O)C2 [Compound 2448]", 9.10],
  ["COc1ccc2c(c1)C(=O)N(C[C@@]1(c3cc4nc(-c5cnc(N)nc5)ccc4o3)NC(=O)NC1=O)C2 [Compound 1519]", 9.40]
]}

A. COc1ccc2c(c1F)C(=O)N(C[C@@]1(c3cc4cc(C5(C)NC(=O)NC5=O)cnc4o3)NC(=O)NC1=O)C2 (some centres unmarked) [Compound 504]
B. COc1ccc2c(c1F)C(=O)N(C[C@@]1(c3cc4cnccc4o3)NC(=O)NC1=O)C2 [Compound 2310]
(Q) Identify the item whose pKi is the smaller number: A or B Give the label of your selection.
(A) A
(A: 9.12, B: 9.43)

A. COc1ccc2c(c1)C(=O)N(C[C@@]1(c3cc4c[n+]([O-])ccc4o3)NC(=O)NC1=O)C2 [Compound 2259]
B. COc1ccc2c(c1)C(=O)N(C[C@@]1(c3cc4nc(-c5c(C)nn(C)c5C)ccc4o3)NC(=O)NC1=O)C2 [Compound 2105]
C. COc1ccc2c(c1)C(=O)N(C[C@@]1(c3cc4cc(C(=O)NCCN)c(F)cc4o3)NC(=O)NC1=O)C2 [Compound 1274]
(Q) hey, can you rank those compounds up there by pKi? biggest number first please A complete answer lists every label in the requested sequence.
(A) B, C, A
(B: 9.81, C: 9.30, A: 8.97)

---

biological target: purified catalytic domain of recombinant human TACE (rhTACEc) (Homo sapiens, UniProt P78536, N452Q/S266A); construct: 6xHis (C); made in house; host or cells: baculovirus/Hi5 insect cells; assay: TACE kinetic assay: cleavage of internally quenched peptide substrate TNF-FRET 2 (Ki); type: biochemical; conditions: TNF-FRET 2 substrate, read-out: Ki
recorded-metric: Ki (nM)

Some compounds with known Ki results, for comparison:
{"columns": ["compound", "Ki, nM"],
 "data": [
  ["COc1ccc2c(c1)C(=O)N(C[C@@]1(c3cc4c(-c5cn[nH]c5)nccc4o3)NC(=O)NC1=O)C2 [Compound 2283]", 0.185],
  ["CCCN1CC=C(c2nc3cc([C@]4(CN5Cc6ccc(OC)c(F)c6C5=O)NC(=O)NC4=O)oc3cc2F)CC1 [Compound 1322]", 0.51],
  ["COc1ccc2c(c1)C(=O)N(C[C@@]1(c3cc4c(OC)nccc4o3)NC(=O)NC1=O)C2 [Compound 2307]", 0.437],
  ["COc1ccc2c(c1)C(=O)N(C[C@@]1(c3cc4cc(N5CC(=O)NS5(=O)=O)ccc4o3)NC(=O)NC1=O)C2 [Compound 2230]", 0.781],
  ["COc1ccc2c(c1)C(=O)N(C[C@@]1(c3cc4nc(N5CCCC(C(N)=O)C5)ccc4o3)NC(=O)NC1=O)C2 (some centres unmarked) [Compound 1515]", 0.7]
]}

1. COc1ccc2c(c1F)C(=O)N(C[C@@]1(c3cc4nc(-c5ccc(N)nc5)c(F)cc4o3)NC(=O)NC1=O)C2 [Compound 1318]
2. CNS(=O)(=O)c1ccc2oc([C@]3(CN4Cc5ccc(OC)cc5C4=O)NC(=O)NC3=O)cc2c1 [Compound 2481]
3. COc1ccc2c(c1)C(=O)N(C[C@@]1(c3ccc(-c4ccc(C5(CN)NC(=O)NC5=O)cc4)cc3)NC(=O)NC1=O)C2 (some centres unmarked) [Compound 2175]
(Q) Hi! Can you put these in order of Ki, lowest number first? Respond with an ordered listing of the labels, as requested.
(A) 2, 1, 3
(2: 0.16 nM, 1: 0.36 nM, 3: 2.08 nM)

I. COc1ccc2c(c1F)C(=O)N(C[C@@]1(c3cc4nc(N(CCN(C)C)c5cn[nH]c5)ccc4o3)NC(=O)NC1=O)C2 [Compound 1714]
II. CNc1cc2oc([C@]3(CN4Cc5ccc(OC)cc5C4=O)NC(=O)NC3=O)cc2cn1 [Compound 2291]
III. CCN1CCN(c2ccc3oc([C@@]4(CN5Cc6ccc(OCC7CC7)c(F)c6C5=O)NC(=O)NC4=O)cc3n2)CC1 [Compound 901]
(Q) Ordering: ascending Ki. Answer format: list of labels, ordered as asked.
(A) II, I, III

1. COc1ccc2c(c1)C(=O)N(C[C@@]1(c3cc4cc(C(=O)NCCNC(C)C)c(F)cc4o3)NC(=O)NC1=O)C2 [Compound 1276]
2. COc1ccc2c(c1)C(=O)N(C[C@@]1(c3cc4nc(C(=O)O)ccc4o3)NC(=O)NC1=O)C2 [Compound 1514]
(Q) Just curious, which one has the larger Ki reading, 1 or 2 ? Your answer should be the label of the entry you select.
(A) 1
(1: 1.2 nM, 2: 0.7 nM)

---

target: purified catalytic domain of recombinant human TACE (rhTACEc) (Homo sapiens, UniProt P78536, N452Q/S266A); construct: 6xHis (C); made in house; host or cells: baculovirus/Hi5 insect cells; assay: TACE kinetic assay: cleavage of internally quenched peptide substrate TNF-FRET 2 (Ki); format: biochemical; conditions: TNF-FRET 2 substrate, read-out: Ki
pKi: −log10 of the molar value.
recorded-metric: pKi

Illustrative cases are given below, each with its answer.
{"columns": ["molecule", "pKi"],
 "data": [
  ["COc1ccc2c(c1)C(=O)N(C[C@@]1(c3cc4nc(N5CCC[C@H]5CO)ccc4o3)NC(=O)NC1=O)C2 [Compound 1513]", 9.15],
  ["COc1ccc2c(c1)C(=O)N(C[C@@]1(c3cc4nc(-c5cnc(N6CCCC6)nc5)ccc4o3)NC(=O)NC1=O)C2 [Compound 1505]", 9.22]
]}

P. COc1ccc2c(c1)C(=O)N(C[C@@]1(c3cc4nc(N5CCNCC5)ccc4o3)NC(=O)NC1=O)C2 [Compound 2126]
Q. COc1ccc2c(c1F)C(=O)N(C[C@@]1(c3cc4cc5c(c(C)c4o3)C(=O)NC5)NC(=O)NC1=O)C2 [Compound 2497]
(Q) Just tell me: smaller pKi value, P or Q ? Response format: the label of the selected entry.
(A) P
